- assay overview: Growth inhibition of Escherichia coli TG1 transformed with IncX3 plasmid expressing blaNDM-1 incubated for overnight by CLSI protocol based assay
- conditions: 12 h
readout: MIC

compound	experimental value
CC(C)(C)OC(=O)NCCn1[se]c2ccccc2c1=O	>= 128 ug ml-1
O=C(NCCn1[se]c2ccccc2c1=O)c1ccc(F)cc1F	>= 128 ug ml-1
CC(C)c1ccc(-n2[se]c3ccccc3c2=O)cc1	>= 128 ug ml-1
O=c1c2ccccc2[se]n1Cc1cccc(-c2ccccc2)c1	>= 128 ug ml-1
CC(C)(OC(=O)NCCCn1[se]c2ccccc2c1=O)C(F)(F)F	>= 128 ug ml-1
CCCC[n+]1ccn(CCCn2[se]c3ccccc3c2=O)c1	>= 128 ug ml-1
CCN(CC)CCCC(C)n1[se]c2ccccc2c1=O (stereo not drawn)	>= 128 ug ml-1
O=c1c2ccccc2[se]n1C1CCCCC1	64 µg/mL
O=c1c2ccccc2[se]n1CCC1CCOCC1	>= 128 ug ml-1
O=c1c2ccccc2[se]n1CCN1CCCCC1	>= 128 ug ml-1
COc1ccc(Cn2[se]c3ccccc3c2=O)cc1	>= 128 ug ml-1
Cl.NCCn1[se]c2ccccc2c1=O	4 µg/mL
C#CCn1[se]c2ccccc2c1=O	64 µg/mL

* * *

- assay overview: Inhibition of bacterial VIM-1
- Parameters: species or system Bacteria
pIC50: −log10 of the molar value.
readout: pIC50

smiles data	readout	experimental value
O=C(O)[C@@H]1SC[C@H]2CS[C@H](CS)N21	pIC50	4.64

* * *

- assay overview: Competitive inhibition of recombinant bacterial His6-tagged TEV protease site linked NDM-1 (32 to […] residues) expressed in Escherichia coli BL21 (DE3)
- Design: species or system Bacteria
pIC50: −log10 of the molar value.

compound	pIC50
O=C(O)[C@H]1CCCCN1C(=O)C(CS)Cc1ccccc1 (mixture of isomers)	6.15

* * *

- assay overview: Toxicity in Galleria mellonella wax moth larve assessed as mortality at 2 mg/kg cotreated with 2 mg/kg meropenem relative to control
- Assay type: organism-based
- conditions: in vivo, read-out: Activity

smiles data	units symbol	mortality
CC(C)(C)OC(=O)NCCn1[se]c2ccccc2c1=O	%	100

* * *

- assay overview: Growth inhibition of Escherichia coli TG1 transformed with IncX3 plasmid expressing blaNDM-1 incubated for overnight by CLSI protocol based assay
- conditions: 12 h
readout: MIC

molecule	readout	experimental value
O=C(O)c1cccc(-n2[se]c3ccccc3c2=O)c1	MIC	32 µg/mL
O=c1c2ccccc2[se]n1-c1ccc(Cl)cc1	MIC	>= 128 ug ml-1
O=C1CC[Se]N1c1ccccc1	MIC	>= 128 ug ml-1
Cc1ccc(C(=O)NCCn2[se]c3ccccc3c2=O)cc1	MIC	>= 128 ug ml-1
Cl.NCCCn1[se]c2ccccc2c1=O	MIC	8 µg/mL
O=C(O)Cn1[se]c2ccccc2c1=O	MIC	8 µg/mL
CC(C)(C)CC(=O)NCCn1[se]c2ccccc2c1=O	MIC	>= 128 ug ml-1
COP(=O)(NCCn1[se]c2ccccc2c1=O)OC	MIC	>= 128 ug ml-1
CC1CN(CCn2[se]c3ccccc3c2=O)CC(C)O1 (configuration not stated)	MIC	>= 128 ug ml-1
O=C(NCCn1[se]c2ccccc2c1=O)c1cccs1	MIC	>= 128 ug ml-1
O=c1c2ccccc2[se]n1CCO	MIC	32 µg/mL
O=C(NCCn1[se]c2ccccc2c1=O)OCc1ccccc1	MIC	>= 128 ug ml-1
O=c1c2ccccc2[se]n1S(=O)(=O)c1ccc(Cl)cc1	MIC	>= 128 ug ml-1
O=C(NCCn1[se]c2ccccc2c1=O)c1ccccc1	MIC	>= 128 ug ml-1
COc1ccc(-n2[se]c3ccccc3c2=O)cc1	MIC	>= 128 ug ml-1
O=c1c2ccccc2[se]n1-c1ccc(CO)cc1	MIC	>= 128 ug ml-1
CCN1CCC[C@H]1Cn1[se]c2ccccc2c1=O	MIC	64 µg/mL
O=c1c2ccccc2[se]n1CCN1CCOCC1	MIC	64 µg/mL
COc1ccc(-n2[se]c3ccccc3c2=O)cc1Cl	MIC	>= 128 ug ml-1
O=c1c2ccccc2[se]n1Cc1cccc(N2CCCCC2)c1	MIC	>= 128 ug ml-1
O=c1c2ccccc2[se]n1CCNCc1ccccc1	MIC	>= 128 ug ml-1
COc1cccc(C(=O)n2[se]c3ccccc3c2=O)c1	MIC	>= 128 ug ml-1
O=c1c2ccccc2[se]n1-c1ccccc1	MIC	64 µg/mL
O=c1c2ccccc2[se]n1-c1ccncc1	MIC	>= 128 ug ml-1
O=c1c2ccccc2[se]n1Cc1ccccc1	MIC	32 µg/mL
O=C(O)c1ccc(-n2[se]c3ccccc3c2=O)cc1	MIC	64 µg/mL
CN(C)CCn1[se]c2ccccc2c1=O	MIC	>= 128 ug ml-1
